Task for the reader: assign each of the following compounds its reported pIC50.
Molecular target: M2 -type muscarinic cholinergic receptor (Cavia porcellus, UniProt H0VRN8)
Construct: on a smooth guinea-pig ileum muscle homogenate; from tissue; host or cells: guinea-pig ileum smooth muscle homogenate
Sequence (H0VRN8 1-466): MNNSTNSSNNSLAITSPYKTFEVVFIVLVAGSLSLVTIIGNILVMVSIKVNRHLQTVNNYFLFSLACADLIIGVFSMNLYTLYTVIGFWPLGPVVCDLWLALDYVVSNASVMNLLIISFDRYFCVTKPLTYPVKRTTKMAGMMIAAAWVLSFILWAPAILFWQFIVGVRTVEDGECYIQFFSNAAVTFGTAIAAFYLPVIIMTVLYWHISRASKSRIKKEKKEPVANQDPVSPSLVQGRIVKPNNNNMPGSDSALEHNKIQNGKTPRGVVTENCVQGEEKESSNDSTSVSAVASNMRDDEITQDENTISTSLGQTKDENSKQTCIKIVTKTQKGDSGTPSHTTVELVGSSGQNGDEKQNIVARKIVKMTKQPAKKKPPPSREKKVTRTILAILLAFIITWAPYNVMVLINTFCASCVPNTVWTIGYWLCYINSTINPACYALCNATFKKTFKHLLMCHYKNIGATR
Assay: Affinity for the M2-type muscarinic cholinergic receptor, displacement of tritiated N-methylscopolamine (3H-NMS) on smooth guinea-pig ileum muscle homogenate
Assay type: binding
Details: guinea-pig ileum smooth muscle homogenate, 3H-NMS 0.3 nM, 20 minutes at 30° C., pH 7.5; read-out: IC50 3H-NMS (M2)
Experimental: The M1 -type receptors are concentrated in certain regions of the brain, such as the hippocampus, the cerebral cortex and the striatum, and also in the sympathetic ganglia. […] The selectivity of the products of the invention with respect to the M1 and M2 sites was determined by studying their in vitro interaction with ^3 H-PZ and ^3 H-NMS firmly bound with a high affinity to rat hippocampus membranes and smooth guinea-pig ileum muscle, respectively. […]
On this scale, pIC50 is minus log10 of a concentration expressed in M (mol/L).

Tell me its pIC50 on M2 -type muscarinic cholinergic receptor (Cavia porcellus, UniProt H0VRN8): Cc1nc(NCCCN(C)C)sc1-c1ccccc1 [SR 44467 A]
4.42

Tell me its pIC50 on M2 -type muscarinic cholinergic receptor (Cavia porcellus, UniProt H0VRN8): CCN(CC)CCCNc1nc(Cc2ccccc2)c(-c2ccccc2)s1 [SR 44515 A]
5.47

Tell me its pIC50 on M2 -type muscarinic cholinergic receptor (Cavia porcellus, UniProt H0VRN8): CCN(CC)CCCNc1nc(-c2ccccc2)cs1 [SR 44374 A]
5.10

Tell me its pIC50 on M2 -type muscarinic cholinergic receptor (Cavia porcellus, UniProt H0VRN8): Cc1cc(C)c(-c2csc(NCCc3ccccn3)n2)c(C)c1 [SR 44905 A]
4.22

Tell me its pIC50 on M2 -type muscarinic cholinergic receptor (Cavia porcellus, UniProt H0VRN8): CCN(CC)CCNc1nc2c(s1)CCCc1ccc([N+](=O)[O-])cc1-2.Cl.Cl [SR 44411 A, dihydrochloride]
5.17

Tell me its pIC50 on M2 -type muscarinic cholinergic receptor (Cavia porcellus, UniProt H0VRN8): COc1ccccc1-c1csc(NCCCN(C)C)n1 [SR 44465 A]
4.40

Tell me its pIC50 on M2 -type muscarinic cholinergic receptor (Cavia porcellus, UniProt H0VRN8): CNCCCNc1nc(-c2c(C)cc(C)cc2C)cs1 [SR 45030 A]
4.10

Tell me its pIC50 on M2 -type muscarinic cholinergic receptor (Cavia porcellus, UniProt H0VRN8): CN1CCN(CCCNc2nc(-c3ccc(F)cc3)cs2)CC1 [SR 44862 A]
4.47

Tell me its pIC50 on M2 -type muscarinic cholinergic receptor (Cavia porcellus, UniProt H0VRN8): CCCCN(CCCC)CCNc1nc(-c2ccc(F)cc2)cs1 [SR 44451 A]
4.10

Tell me its pIC50 on M2 -type muscarinic cholinergic receptor (Cavia porcellus, UniProt H0VRN8): CCN(CC)CCNc1nc(-c2ccccc2)cs1 [SR 44286 A]
4.00

Tell me its pIC50 on M2 -type muscarinic cholinergic receptor (Cavia porcellus, UniProt H0VRN8): c1ccc(-c2cnc(NCCN3CCCCC3)s2)cc1 [SR 44490 A]
4.60

Tell me its pIC50 on M2 -type muscarinic cholinergic receptor (Cavia porcellus, UniProt H0VRN8): CCN1CCCC(Nc2nc(-c3c(C)cc(C)cc3C)cs2)C1 (stereo not drawn) [SR 44965 A]
4.22

Tell me its pIC50 on M2 -type muscarinic cholinergic receptor (Cavia porcellus, UniProt H0VRN8): CCN(CC)CCNc1nc(C)c(-c2ccccc2)s1 [SR 44436 A]
4.30

Tell me its pIC50 on M2 -type muscarinic cholinergic receptor (Cavia porcellus, UniProt H0VRN8): CCCCN(CCCC)CCNc1ncc(-c2ccccc2)s1 [SR 44492 A]
4.55

Tell me its pIC50 on M2 -type muscarinic cholinergic receptor (Cavia porcellus, UniProt H0VRN8): CCN(CC)CCNc1nc2c(s1)CCCc1ccccc1-2 [SR 44323 A]
5.07

Tell me its pIC50 on M2 -type muscarinic cholinergic receptor (Cavia porcellus, UniProt H0VRN8): Cc1cc(C)c(-c2csc(NCCCN3CCN(C)CC3)n2)c(C)c1 [SR 44915 A]
4.40

Tell me its pIC50 on M2 -type muscarinic cholinergic receptor (Cavia porcellus, UniProt H0VRN8): CN(C)CCCNc1nc(C2CCCCC2)cs1 [SR 44574 A]
4.62

Tell me its pIC50 on M2 -type muscarinic cholinergic receptor (Cavia porcellus, UniProt H0VRN8): c1ccc2cc(-c3csc(NCCN4CCCCC4)n3)ccc2c1 [SR 44516 A]
4.12

Tell me its pIC50 on M2 -type muscarinic cholinergic receptor (Cavia porcellus, UniProt H0VRN8): CCN(CC)CCNc1nc(C)cs1 [SR 44422 A]
4.00

Tell me its pIC50 on M2 -type muscarinic cholinergic receptor (Cavia porcellus, UniProt H0VRN8): CN(C)CCCNc1nc2c(s1)CCCc1ccccc1-2 [SR 44327 A]
4.42

Tell me its pIC50 on M2 -type muscarinic cholinergic receptor (Cavia porcellus, UniProt H0VRN8): CC(C)N(CCCNc1nc(-c2ccc(F)cc2F)cs1)C(C)C [SR 44916 A]
5.30

Tell me its pIC50 on M2 -type muscarinic cholinergic receptor (Cavia porcellus, UniProt H0VRN8): CCN(CC)CCNc1nc(-c2c(C)cc(C)cc2C)cs1 [SR 44372 A]
5.30

Tell me its pIC50 on M2 -type muscarinic cholinergic receptor (Cavia porcellus, UniProt H0VRN8): CCN(CC)CCCNc1ncc(-c2ccccc2)s1 [SR 44346 A]
4.60

Tell me its pIC50 on M2 -type muscarinic cholinergic receptor (Cavia porcellus, UniProt H0VRN8): CN1CCCC1CCNc1nc(-c2ccc(F)cc2)cs1 (stereo not drawn) [SR 44786 A]
4.40

Tell me its pIC50 on M2 -type muscarinic cholinergic receptor (Cavia porcellus, UniProt H0VRN8): Cc1cc(C)c(-c2csc(NCc3cccnc3)n2)c(C)c1 [SR 44839 A]
4.00

Tell me its pIC50 on M2 -type muscarinic cholinergic receptor (Cavia porcellus, UniProt H0VRN8): CCN(CC)CCCNc1nc(-c2c(C)cc(C)cc2C)cs1 [SR 44347 A]
4.89

Tell me its pIC50 on M2 -type muscarinic cholinergic receptor (Cavia porcellus, UniProt H0VRN8): Cc1nc(NCCN(C(C)C)C(C)C)sc1-c1ccccc1 [SR 44489 A]
5.70

Tell me its pIC50 on M2 -type muscarinic cholinergic receptor (Cavia porcellus, UniProt H0VRN8): Cc1cc(C)c(-c2csc(NCCN(C(C)C)C(C)C)n2)c(C)c1 [SR 44908 A]
5.40

Tell me its pIC50 on M2 -type muscarinic cholinergic receptor (Cavia porcellus, UniProt H0VRN8): CN(C)CCCNc1ncc(-c2ccccc2)s1 [SR 44967 A]
4.40

Tell me its pIC50 on M2 -type muscarinic cholinergic receptor (Cavia porcellus, UniProt H0VRN8): CN(C)CCCNc1nc(-c2ccc(Cl)cc2)cs1 [SR 44493 A]
4.35

Tell me its pIC50 on M2 -type muscarinic cholinergic receptor (Cavia porcellus, UniProt H0VRN8): Cc1nc(NCCN2CCCC2)sc1-c1ccccc1 [SR 44488 A]
4.47

Tell me its pIC50 on M2 -type muscarinic cholinergic receptor (Cavia porcellus, UniProt H0VRN8): Cc1sc(NCCCN(C)C)nc1-c1ccccc1 [SR 44769 A]
4.52

Tell me its pIC50 on M2 -type muscarinic cholinergic receptor (Cavia porcellus, UniProt H0VRN8): CN(C)CCCNc1nc(-c2ccccc2)cs1 [SR 44345 A]
4.15

Tell me its pIC50 on M2 -type muscarinic cholinergic receptor (Cavia porcellus, UniProt H0VRN8): c1ccc(-c2cnc(NCCN3CCCC3)s2)cc1 [SR 44438 A]
4.22

Tell me its pIC50 on M2 -type muscarinic cholinergic receptor (Cavia porcellus, UniProt H0VRN8): NCCCNc1nc(-c2ccc(F)cc2)cs1 [SR 44886 A]
4.15

Tell me its pIC50 on M2 -type muscarinic cholinergic receptor (Cavia porcellus, UniProt H0VRN8): CCN(CC)CCCNc1nc(-c2ccc3ccccc3c2)cs1 [SR 44573 A]
4.89
